assay: Stability in liver microsomes, rat
Attribute: Trep Concentration 0 min

Reference set, count: 3
- compound: "CCCCCC(CCC1C(O)CC2Cc3c(cccc3OCC(=O)O)CC21)OC (centres unmarked)"
  result: "0 µM"
- compound: "CCCCCC(CCC1C(O)CC2Cc3c(cccc3OCC(=O)O)CC21)OC(=O)C(N)CCCCN (centres unmarked)"
  result: "0.0254 µM"
- compound: "CCCCCC(CCC1C(O)CC2Cc3c(cccc3OCC(=O)O)CC21)OC(=O)N1CCC(O)CC1 (centres unmarked)"
  result: "0 µM"

Inquiry: So what's the measured Trep Concentration 0 min for this one? CCCCCC(CCC1C(O)CC2Cc3c(cccc3OCC(=O)O)CC21)OC(=O)NCC(=O)O (centres unmarked)
Reply text: 0 µM

Inquiry: Let us now turn to CCCCCC(CCC1C(O)CC2Cc3c(cccc3OCC(=O)O)CC21)OC(=O)CCN (centres unmarked)
Reply text: 0 µM

###

test: Stability in liver microsomes, rat
Attribute: Trep Concentration 30 min
Please state the figure in µM; there is no need to write the unit.

Reference set, count: 8
- compound: "CCCCCC(CCC1C(O)CC2Cc3c(cccc3OCC(=O)O)CC21)OC(=O)c1ccc(C(F)(F)F)cc1 (centres unmarked) [LXII]"
  measured_metric: "Trep Concentration 30 min"
  numeric_value: 0.139
- compound: "CCCCCC(CCC1C(O)CC2Cc3c(cccc3OCC(=O)O)CC21)OP(=O)(O)O (centres unmarked) [VI]"
  measured_metric: "Trep Concentration 30 min"
  numeric_value: 0.53
- compound: "CCCCC[C@H]1CC[C@@H]2[C@H]3Cc4cccc(OCC(=O)O)c4C[C@H]3C[C@H]2OC(=O)O1 [XXIV]"
  measured_metric: "Trep Concentration 30 min"
  numeric_value: 0.802
- compound: "CCCCCC(CCC1C(O)CC2Cc3c(cccc3OCC(=O)O)CC21)OC(=O)C(N)CCCCN (centres unmarked) [XXXV]"
  measured_metric: "Trep Concentration 30 min"
  numeric_value: 0.0458
- compound: "CCCCCC(CCC1C(O)CC2Cc3c(cccc3OCC(=O)O)CC21)OC(=O)CN (centres unmarked) [XXX]"
  measured_metric: "Trep Concentration 30 min"
  numeric_value: 0.122
- compound: "CCCCCC(CCC1C(O)CC2Cc3c(cccc3OCC(=O)O)CC21)OC(=O)c1ccc(O)c(O)c1 (centres unmarked) [LXVI]"
  measured_metric: "Trep Concentration 30 min"
  numeric_value: 0.00422
- compound: "CCCCCC(CCC1C(O)CC2Cc3c(cccc3OCC(=O)O)CC21)OC(=O)c1ccccc1O (centres unmarked) [LXI]"
  measured_metric: "Trep Concentration 30 min"
  numeric_value: 0.00337
- compound: "CCCCCC(CCC1C(O)CC2Cc3c(cccc3OCC(=O)O)CC21)OC(=O)NCCO (centres unmarked) [LIX]"
  measured_metric: "Trep Concentration 30 min"
  numeric_value: 0

Inquiry: So what's the measured Trep Concentration 30 min for this one? CCCCCC(O)CCC1C(OC)CC2Cc3c(cccc3OCC(=O)O)CC21 (centres unmarked) [LIII]
Reply text: 0.0274

Inquiry: Let us now turn to CCCCCC(CCC1C(O)CC2Cc3c(cccc3OCC(=O)O)CC21)OC(=O)COc1ccc(O)cc1 (centres unmarked) [LIV]
Reply text: 0.709

Inquiry: Let us now turn to CCCCCC(CCC1C(O)CC2Cc3c(cccc3OCC(=O)O)CC21)OC(=O)CCC(=O)N1CCOCC1 (centres unmarked) [XXXIII]
Reply text: 0.0305

Inquiry: Let us now turn to CCCCCC(CCC1C(O)CC2Cc3c(cccc3OCC(=O)O)CC21)OC(=O)c1cccc(O)c1 (centres unmarked) [LX]
Reply text: 0.0481

Inquiry: Let us now turn to CCCCCC(CCC1C(O)CC2Cc3c(cccc3OCC(=O)O)CC21)OC(=O)c1ccc(O)cc1 (centres unmarked) [LXVIII]
Reply text: 0.0127

Cited source: patent US12491170B2
